# credit: patent US8058243B2

# Test system: murine neural precursor cells (neurosphere cultures)
# Experiment: HTS of LOPAC library against secondary neurosphere cultures, MTT proliferation assay at 3 μM, day 7 (z score, P value)
# Assay type: cell-based, mouse
# Run Conditions: LOPAC library screen, 3 μM, MTT, secondary neurosphere cultures, day 7
Structures can show the parent of a compound that is named as a salt.
A collection of compounds and their measured Z Score
Recorded Endpoint: Z Score

Compound: CC(NCCc1ccc(O)cc1)C(O)c1ccc(O)cc1 (centres unmarked) [Ritodrine hydrochloride]
Assay Result: −2.332
--
Compound: CS(=O)(=O)Nc1ccc([N+](=O)[O-])cc1Oc1ccccc1 [Nimesulide]
Assay Result: −2.395
--
Compound: CCCN(CCC)C(=O)C(CCC(=O)O)NC(=O)c1ccccc1 (centres unmarked) [Proglumide]
Assay Result: −1.907
--
Compound: CC(=O)[C@]1(O)Cc2c(O)c3c(c(O)c2[C@@H](O[C@H]2C[C@H](N)[C@H](O)[C@H](C)O2)C1)C(=O)c1ccccc1C3=O
Assay Result: −11.27
--
Compound: Cc1ccccc1N1C(=O)c2cc(S(N)(=O)=O)c(Cl)cc2NC1C (centres unmarked)
Assay Result: −8.113
--
Compound: COc1ccc2c(c1)c(CC(=O)O)c(C)n2Cc1ccc(Cl)cc1
Assay Result: −1.584
--
Compound: COc1cc(CNC(=O)CCCCCCC(C)C)ccc1O [Dihydrocapsaicin (15), Dihydrocapsaicin]
Assay Result: −10
--
Compound: CC[C@H](C)C(=O)O[C@H]1CCC=C2C=C[C@H](C)[C@H](CC[C@@H]3C[C@@H](O)CC(=O)O3)[C@H]21
Assay Result: −6.278

====

# Tested on: murine neural precursor cells (neurosphere cultures)
# Experiment: HTS of LOPAC library against secondary neurosphere cultures, MTT proliferation assay at 3 μM, day 7 (z score, P value)
# Format: cell-based, mouse
# Run Conditions: 168 h, 3 µM
Where a name gives a salt, the structure may show the parent alone.
Lab note: anything with Z Score below -0.4 is marked met; values at -0.4 or higher are marked not met.

Compound: CCCCCC(O)CCCC(=O)O.[Na] (stereo not drawn) [5-hydroxydecanoic acid sodium]
Assigned Label: not met
--
Compound: Nc1nc(Cl)nc2c1ncn2[C@@H]1O[C@H](COP(=O)([O-])OP(=O)([O-])OP(=O)([O-])[O-])[C@@H](O)[C@H]1O.[Na+].[Na+].[Na+].[Na+]
Assigned Label: not met
--
Compound: CCCCCCCCCCCCCCCC(=O)NCC(COP(=O)([O-])OCC[N+](C)(C)C)OCC (racemic)
Assigned Label: met
--
Compound: Nc1ncnc2c1ncn2C1CCCC1
Assigned Label: not met
--
Compound: O=c1c(O)c(-c2ccc(O)cc2O)oc2cc(O)cc(O)c12
Assigned Label: met
--
Compound: CCOC(=O)C1=C(C)NC(=S)NC1c1cccc(O)c1 (stereo not drawn)
Assigned Label: met
--
Compound: Cc1scc2c1N(C(=O)CN1CCN(C)CC1)c1ccccc1NC2=O [Telenzepine dihydrochloride]
Assigned Label: not met
--
Compound: CCNC(=O)N1CCN(CCCC(c2ccc(F)cc2)c2ccc(F)cc2)CC1 [Amperozide hydrochloride]
Assigned Label: met
--
Compound: CC[C@@H]1C(=O)OC[C@@H]1Cc1cncn1C [Pilocarpine nitrate]
Assigned Label: met
--
Compound: CCCCCCCC/C=C\CCCCCCCC(=O)NCCc1ccc(O)c(O)c1
Assigned Label: not met
--
Compound: Cc1cc(C)c(NC(=O)C[C@H](CC(=O)O)c2cccc3ccccc23)c(C(=O)N2CCC3(CCCC3)CC2)c1
Assigned Label: not met
--
Compound: CCOC(=O)c1cnc2c(cnn2CC)c1NN=C(C)C [Etazolate hydrochloride]
Assigned Label: not met
--
Compound: Cn1c(=O)c2[nH]c(-c3ccc(S(=O)(=O)O)cc3)nc2n(C)c1=O
Assigned Label: not met
--
Compound: CC1(C)CCC2=C(O1)c1ccccc1C(=O)C2=O
Assigned Label: met
--
Compound: CN(C)CCC=C1c2ccccc2COc2ccccc21 [Doxepin hydrochloride]
Assigned Label: met
--
Compound: CC1CN(S(=O)(=O)c2cccc3cnccc23)CCN1.Cl.Cl (stereo not drawn)
Assigned Label: not met
--
Compound: Cl.NCCCCC(=O)O [5-Aminovaleric acid hydrochloride]
Assigned Label: met
--
Compound: CC[N+](CC)(CC)CCOc1ccc(/C=C/c2ccccc2)cc1
Assigned Label: met
